assay: NCI Yeast Anticancer Drug Screen. Data for the CLN2oe strain (AID 163);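 note: 0% = growth of vehicle-only control cultures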; settings: S. cerevisiae CLN2oe strain, at 11.0 µM, active compounds read high
About 79,000 compounds went through this panel and 15% of them were active in at least one assay; those are over-represented in the sample as a whole.
List of growth inhibition values.
State the answer as a number, implicitly in %.

>>> print(df.to_string())
                                  compound  recorded_value
0  Nc1ccccc1CC(O)C(=O)O (stereo not given)              13

Qu. Query (compound): O=Cc1cccc2ccc3ccccc3c12 ; field requested: growth inhibition
Ans. 9

Qu. // returns reported growth inhibition for input Cc1cc(N=Nc2ccc(S(=O)(=O)[O-])cc2)cc(C(=O)[O-])c1[O-].NC1CCCCC1N.[Na+].[Pt+4]
Ans. 95

Qu. Would you kindly share the measured growth inhibition for Cc1cc(I)ccc1N ?
Ans. -3

Qu. Using the record for c1ccc(-c2ccnc3c2ccc2c(-c4ccccc4)ccnc23)cc1 , report its growth inhibition.
Ans. 50

Qu. May I ask what growth inhibition has been recorded for O=C1c2cc([N+](=O)[O-])ccc2-c2cccc(F)c21 ?
Ans. 6

Qu. Name the recorded growth inhibition for COc1ccccc1C(=O)OCC1CCCN2CCCCC12 (stereo not given) .
Ans. -12

Qu. I'd like to know its growth inhibition. The compound in question is O=C1CSC(/C=C/c2ccccc2)N1c1ccc(-c2ccc(-n3c(-c4ccccc4)nc4ccccc4c3=O)cc2)cc1 (stereo not given)
Ans. -6

Qu. Endpoint output: growth inhibition of COc1cc(C(=O)/C=C/c2ccccc2O)ccc1O . Value?
Ans. 99

Qu. Using the record for [N-]=N[N+]#I1OC(C(F)(F)F)(C(F)(F)F)c2ccccc21 , report its growth inhibition.
Ans. 98

---

assay: NCI Yeast Anticancer Drug Screen. Data for the CLN2oe strain (AID 163);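 note: 0% = growth of vehicle-only control cultures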; conditions: S. cerevisiae CLN2oe strain, at 11.0 µM, active compounds read high
About 79,000 compounds went through this panel and 15% of them were active in at least one assay; those are over-represented in the sample as a whole.
Reported growth inhibition by item:
Write the number in % without appending the unit.

>>> df
                                   compound  measurement_unit  recorded_value
0                 COc1ccc2ccc3ccccc3c2c1C=O                 %              -2
1  CCCCN1C(=O)N(c2ccc(OCC)cc2)C2N(CCCC)C1C(C)(C)C2(C)C (stereo unspecified)                 %             -10
2  O=C(NC(Nc1ccc(F)c(Cl)c1)(C(F)(F)F)C(F)(F)F)C(C(F)(F)F)C(F)(F)F                 %              92
3  CCCCCCCCCCC1CCC(=O)O1 (stereo unspecified)                 %               7
4  CCN(CC)CC(O)c1ccc2ccc3ccccc3c2c1 (stereo unspecified)                 %              15
5  CC(=O)Oc1cc(-c2cc(OC(C)=O)c(OC(C)=O)c3ccccc23)c2ccccc2c1OC(C)=O                 %              -5
6          O=[N+]([O-])c1ccc2nc3ccccc3cc2c1                 %               5
7  O=C(NCCCCNCCCNC(=O)c1cc(-c2ccccc2)nc2ccccc12)c1cc(-c2ccccc2)nc2ccccc12                 %              -1
8  COC(=O)C1=C(C(=O)OC)C2(C)C=CC1O2 (stereo unspecified)                 %              -4
9  CNC1C(OC2C(OC3C(O)C(O)C(N=C(N)N)C(O)C3N=C(N)N)OC(C)C2(O)CO)OC(CO)C(O)C1O (stereo unspecified)                 %              -2

Qu. Need growth inhibition, item CCCS(=O)(=O)Nc1ccc(Nc2c3ccccc3nc3ccccc23)c(OC)c1
Ans. -11
